# Test Summary: AUC (0 to t) in rhesus monkey at 1 mg/kg, iv
# Type: ADME, organism-based, Macaca mulatta
# Parameters: dose 1 mg/kg, route intravenous
# Condition: plasma
Property Measured: AUC(0-t) (µM·h)
Just the number in µM·h, nothing appended.

Ask: Reported AUC(0-t), molecule `N#Cc1cc(F)cc(N2CCCc3oc(-c4ccccn4)nc3C2)c1` : ____
Reply: 3.06

----------
# Test system: Brain
# Test Summary: Drug level in Sprague-Dawley rat brain at 3 mg/kg, ip
# Assay type: ADME, organism-based
# Set-up: dose 3 mg/kg, route intraperitoneal
# Condition: in vivo, read-out: Drug uptake
Property Measured: concentration
Note: state the figure and append the unit.

Ask: Entry under review: `N#Cc1cc(F)cc(N2CCc3oc(-c4ccccn4)nc3C2)c1` . Reported concentration?
Reply: 1290 nM
